assayMetric: melting point (°C)
Field: numeric (°C). Do not append units.

### Prompt Requested read-out: melting point. Entry: `C1=CCc2ccccc2C1`
### Response 25

### Prompt Similarly, Cc1ccc(C2C(C#N)=C(N)Oc3c2c(C(F)(F)F)nn3-c2ccccc2)cc1 (stereo unspecified) ?
### Response 205

### Prompt Similarly, `COc1ccc(/N=N/c2sc(/C(C#N)=N/Nc3ccc(F)cc3)nc2C)cc1` ?
### Response 214

### Prompt Similarly, `O=C(O)[C@@H]1CCN1C(=O)OCC1c2ccccc2-c2ccccc21` ?
### Response 135

### Prompt Similarly, `Cc1c(-c2ccccc2)oc2c(C(=O)O)cccc2c1=O` ?
### Response 235

### Prompt Similarly, `Cc1c(C)c(Br)c(Br)c(Br)c1Br` ?
### Response 262

### Prompt Similarly, Fc1ccc(C2(Cn3cncn3)OC2c2ccccc2Cl)cc1 (stereo unspecified) ?
### Response 137

### Prompt Similarly, `CN(C)c1ccc(N=c2cc(-c3ccccc3)oc(-c3ccccc3)c2)cc1` ?
### Response 148

### Prompt Similarly, `C#CC` ?
### Response -103

### Prompt Similarly, CC(=O)C1(C)CCC2C3CCC4=CC(=O)CCC4=C3CCC21C (stereo unspecified) ?
### Response 106

### Prompt Similarly, `CCOP(=S)(OCC)Oc1cnccn1` ?
### Response -1.7

### Prompt Similarly, `CC(=O)Oc1nn(-c2ccc(Br)cc2)cc1Br` ?
### Response 77

### Prompt Similarly, `O=C1CCc2ccccc2O1` ?
### Response 25

### Prompt Similarly, CC(=O)OC1CCC2(C)C3CCC4(C)C(C(C)CCCC(C)C)CCC4C3CC(OC(C)=O)C2(O)C1 (stereo unspecified) ?
### Response 164

### Prompt Similarly, `CN(C)C(c1ccccc1)c1ccccc1` ?
### Response 69

### Prompt Similarly, `OCC1CCCCC1` ?
### Response -43

### Prompt Similarly, `Cc1ccccc1S(=O)(=O)Cl` ?
### Response 10

### Prompt Similarly, `CCCCCCCCCCCCCCCCCCS(=O)(=O)Cl` ?
### Response 58

### Prompt Similarly, `CCCCOC(=O)CC(C)=O` ?
### Response -35.6

### Prompt Similarly, `CC(C)n1cc(-c2ccc(F)cc2)c2ccccc21` ?
### Response 97

---

What melting point was measured for each of the following?
Field: numeric (°C). Do not append units.

### Prompt Requested read-out: melting point. Entry: `C/C(=C(/C#N)c1nc2ccccc2s1)c1cc2ccccc2oc1=O`
### Response 155

### Prompt Similarly, `COc1cc(N=C=S)c(C(c2ccc(C)o2)c2ccc(C)o2)cc1OC` ?
### Response 91

### Prompt Similarly, `O=C(O)C1(C(=O)Nc2ccc(Cl)cc2Cl)CC1` ?
### Response 195

### Prompt Similarly, `Nc1ccc(S(=O)(=O)NC(=O)c2ccccc2)cc1` ?
### Response 182

### Prompt Similarly, `O=C(c1ccccc1)N(CC(=Nc1ccccc1)Nc1ccccc1)c1ccccc1` ?
### Response 142

### Prompt Similarly, `O=c1c2cc(F)ccc2nc(-n2cncn2)n1-c1ccc(Cl)cc1Cl` ?
### Response 192

### Prompt Similarly, COc1ccc(-c2nnc3n2NC(c2ccc(N(C)C)cc2)S3)cc1 (stereo not drawn) ?
### Response 167

### Prompt Similarly, `O=Cc1cccc2c([N+](=O)[O-])cccc12` ?
### Response 136

### Prompt Similarly, `O=C(O)COc1cccc2ccccc12` ?
### Response 196

### Prompt Similarly, CC(=O)C(C=N)c1ccccc1 (stereo not drawn) ?
### Response 96

### Prompt Similarly, `CCCCCCCCCCCC=CCCCCC(=O)O` ?
### Response 29.8

### Prompt Similarly, COC(=O)CC1CCC(NC(=O)OC(C)(C)C)CC1 (stereo not drawn) ?
### Response 81

### Prompt Similarly, `C=CC=c1c(=CC)c(O)c(C2=NNC(=O)C2=CNc2ccncc2)c(=O)n1C` ?
### Response 238

### Prompt Similarly, CC1CCC2C(C)(C)C3CC12CCC3(C)O (stereo not drawn) ?
### Response 86

### Prompt Similarly, `NCCc1c[nH]c2ccc(O)cc12` ?
### Response 168
